# ASSAYED SYSTEM: Serine/threonine-protein kinase TBK1 (Homo sapiens, UniProt Q9UHD2)
# Sequence (Q9UHD2 whole entry): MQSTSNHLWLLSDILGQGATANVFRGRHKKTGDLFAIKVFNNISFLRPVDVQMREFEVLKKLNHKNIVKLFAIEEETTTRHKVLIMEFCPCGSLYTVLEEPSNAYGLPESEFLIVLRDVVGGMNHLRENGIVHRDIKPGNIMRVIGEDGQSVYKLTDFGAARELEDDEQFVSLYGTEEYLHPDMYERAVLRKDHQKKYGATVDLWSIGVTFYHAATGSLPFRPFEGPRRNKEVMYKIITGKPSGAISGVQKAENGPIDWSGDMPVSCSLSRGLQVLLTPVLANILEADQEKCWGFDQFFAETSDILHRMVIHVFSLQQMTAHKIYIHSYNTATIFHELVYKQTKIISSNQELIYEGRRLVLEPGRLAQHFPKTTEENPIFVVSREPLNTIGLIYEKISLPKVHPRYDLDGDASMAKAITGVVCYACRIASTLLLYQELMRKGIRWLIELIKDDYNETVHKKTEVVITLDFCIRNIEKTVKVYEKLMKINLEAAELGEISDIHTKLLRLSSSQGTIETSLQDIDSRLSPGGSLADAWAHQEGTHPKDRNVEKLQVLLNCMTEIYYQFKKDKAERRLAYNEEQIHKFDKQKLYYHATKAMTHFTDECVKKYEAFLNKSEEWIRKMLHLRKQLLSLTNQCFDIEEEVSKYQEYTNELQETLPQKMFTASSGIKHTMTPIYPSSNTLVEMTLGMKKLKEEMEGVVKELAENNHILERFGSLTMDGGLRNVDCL
# METHOD DESCRIPTION: Inhibition of TBK1 in human THP1 cells assessed as decrease in baculovirus-stimulated IFNbeta secretion preincubated for 45 mins followed by virus addition and measured after 20 hrs by electrochemiluminescence method
QUANTITY MEASURED: IC50 (nM)

• Cc1nn(CC(F)(F)F)cc1Nc1ncc(Br)c(NCc2ccc(S(N)(=O)=O)cc2)n1 = 1260

====

# METHOD DESCRIPTION: Half life in human liver microsomes at 0.5 uM in presence of NADPH by LC/MS/MS analysis
# Type: ADME, Microsome
QUANTITY MEASURED: half-life at 0.5 µM (h)

- Cc1nn(CC(F)(F)F)cc1Nc1ncc(Br)c(NCc2ccc(S(N)(=O)=O)cc2)n1: 1.12

Just for reference, ChEMBL document CHEMBL4364239 is where these values come from.
